target: T1, dimeric human PRLR (hPRLR.mFc; SEQ ID NO:402) (Homo sapiens, UniProt P16471); assay: Surface plasmon resonance (Biacore T200), antibody-capture format; assay type: binding; settings: 37° C., analyte hPRLR.mFc
T1 construct: dimeric (hPRLR.mFc)
T1 sequence (P16471 with tags, fused parts or gaps): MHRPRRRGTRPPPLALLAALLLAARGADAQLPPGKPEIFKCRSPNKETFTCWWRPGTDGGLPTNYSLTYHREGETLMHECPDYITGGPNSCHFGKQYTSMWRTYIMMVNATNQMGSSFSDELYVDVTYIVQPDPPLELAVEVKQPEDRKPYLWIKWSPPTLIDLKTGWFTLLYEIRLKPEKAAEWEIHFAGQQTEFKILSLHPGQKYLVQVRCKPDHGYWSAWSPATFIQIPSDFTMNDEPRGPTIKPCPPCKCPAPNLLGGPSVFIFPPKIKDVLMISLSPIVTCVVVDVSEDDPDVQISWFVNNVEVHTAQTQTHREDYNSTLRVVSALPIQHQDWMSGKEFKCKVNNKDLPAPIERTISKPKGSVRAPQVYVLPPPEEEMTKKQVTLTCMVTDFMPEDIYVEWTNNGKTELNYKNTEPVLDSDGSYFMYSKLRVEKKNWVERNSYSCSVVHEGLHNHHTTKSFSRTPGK
Field: kd. Provide a value for each of the molecules that follow.
Give just the numeric value; s⁻¹ need not be written.

Ask: Bench note: what kd did H1H6976N: anti-PRLR antibody, human IgG1 Fc form of H2M6976N of Table 1; HCVR/LCVR SEQ ID NOs 386/394 (antibody, V domains shown, human IgG1 Fc) VH: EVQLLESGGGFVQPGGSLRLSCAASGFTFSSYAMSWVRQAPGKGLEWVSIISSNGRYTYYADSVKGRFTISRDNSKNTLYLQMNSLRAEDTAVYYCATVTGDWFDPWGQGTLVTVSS VL: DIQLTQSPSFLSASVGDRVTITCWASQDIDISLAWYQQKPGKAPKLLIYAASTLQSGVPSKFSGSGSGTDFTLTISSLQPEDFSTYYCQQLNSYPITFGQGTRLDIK show?
Result: 0.00014

Ask: Return reported kd; argument: H1H6762P: fully human anti-PRLR antibody, human IgG1 Fc; HCVR/LCVR SEQ ID NOs 2/10 (antibody, V domains shown) VH: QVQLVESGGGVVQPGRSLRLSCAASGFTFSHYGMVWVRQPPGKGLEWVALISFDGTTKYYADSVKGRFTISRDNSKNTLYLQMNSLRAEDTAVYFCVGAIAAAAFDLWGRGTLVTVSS VL: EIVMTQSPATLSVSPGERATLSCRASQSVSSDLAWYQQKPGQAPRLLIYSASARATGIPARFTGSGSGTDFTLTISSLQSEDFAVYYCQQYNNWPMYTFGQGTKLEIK
Result: 0.000103
